The values you see were collected from paper PMC9826610.

- System: methicillin-resistant S. aureus (FPR3757)
- Measurement Description: MIC against methicillin-resistant S. aureus
- Assay type: cell-based, Staphylococcus aureus
- Applied Conditions: Staphylococcus aureus, complete inhibition of observable growth, Mueller–Hinton broth
Experimental Readout: MIC

Molecule | Tgt | Experimental Readout | Recorded Measurement
O=c1cc(C(F)(F)F)[nH]c2cc(C(F)(F)F)ccc12 [Compound 2, 2,7-Bis-(trifluoromethyl)quinolin-4-ol] | methicillin-resistant S. aureus (FPR3757) | MIC | 4 to 8 µg/mL
Oc1cc(C(F)(F)F)nc2c(C(F)(F)F)cccc12 [Compound 4] | methicillin-resistant S. aureus (FPR3757) | MIC | 2 to 4 µg/mL
O=c1cc(C(F)(F)F)[nH]c2cc(C(F)(F)F)cc(Nc3ccc(F)cn3)c12 [Compound 114] | methicillin-resistant S. aureus (FPR3757) | MIC | 0.125 to 2 µg/mL
Fc1ccc(Nc2cc(C(F)(F)F)nc3cc(C(F)(F)F)ccc23)cc1F [Compound 21] | methicillin-resistant S. aureus (FPR3757) | MIC | 0.125 to 0.25 µg/mL
